Assay: activators of NF-kB expression in neurons, primary screen, cell-based, HTS (AID 1239)
Conditions: human neuronal cells, NF-kB reporter expression; at 12.5 µM; hits give high values
Hit rate of the full screen: of about 190,000 compounds, about 3,100 (1.6%) were called active. For the sample, actives were picked, then their nearest neighbours and some compounds at random.
The label depends only on fold change: yes if it is at least 1, no if it is smaller.

molecule="N#Cc1c(NC(=O)C2CCCO2)sc2c1CCCCC2 (stereo unspecified)" class_label=yes
molecule="COc1ccc(C2=NOC3(CC(=O)N(c4ccc(C)cc4)C3=O)C2)cc1 (stereo unspecified)" class_label=no
molecule="CC1(C)CC(=O)CC2(C1)NCC(c1ccccc1Cl)c1c2[nH]c2ccccc12 (stereo unspecified)" class_label=no
molecule=CCOC(=O)c1sc2nc(SC)nc(-c3ccccc3)c2c1N class_label=yes
molecule=CCOC(=O)CSc1nnc(-c2ccc([N+](=O)[O-])cc2)o1 class_label=yes
molecule=CCOC(=O)CSc1nnc(-c2ccncc2)o1 class_label=yes
molecule=O=C(CSc1cccc[n+]1[O-])c1ccc(-c2ccccc2)cc1 class_label=yes
molecule=CCN(CC)C(=O)c1sc2nc(-c3ccccc3)ccc2c1N class_label=yes
molecule=CS(=O)(=O)c1sc2nc(-c3ccccc3)cc(-c3ccccc3)c2c1N class_label=yes
molecule=COc1ccc(C2=Nc3cc(C)ccc3OC2)cc1 class_label=yes
